# procedure_summary: Eribulin mesylate blood plasma and tumor tissue PK in LOX cancer-bearing mice (Embodiment 11)
# Assay type: in vivo
# settings: female, NU/NU nude, mouse, iv; blood plasma; 1.0 mg/kg into caudal vein; LOX cancer-bearing mice
Structures can show the parent of a compound that is named as a salt.
assay_endpoint: clearance (mL/min/kg)
Dear colleague, please return just the value in mL/min/kg, with no unit written.

Give its clearance value. Item: C=C1C[C@@H]2CC[C@@]34C[C@H]5O[C@H]6[C@@H](O3)[C@H]3O[C@H](CC[C@@H]3O[C@H]6[C@H]5O4)CC(=O)C[C@@H]3[C@@H](OC)[C@@H](C[C@H](O)CN)O[C@H]3C[C@H]3O[C@@H](CC[C@@H]1O2)C[C@@H](C)C3=C [eribulin mesylate]
40.3

* * *

# procedure_summary: Eribulin mesylate blood plasma and tumor tissue PK in LOX cancer-bearing mice (Embodiment 11)
# Assay type: in vivo
# settings: female, NU/NU nude, mouse, iv; blood plasma; 1.0 mg/kg into caudal vein; LOX cancer-bearing mice; read-out: Vss
Structures can show the parent of a compound that is named as a salt.
assay_endpoint: Vd (L/kg)
Express it in L/kg; write the number only.

Please report the recorded Vd for C=C1C[C@@H]2CC[C@@]34C[C@H]5O[C@H]6[C@@H](O3)[C@H]3O[C@H](CC[C@@H]3O[C@H]6[C@H]5O4)CC(=O)C[C@@H]3[C@@H](OC)[C@@H](C[C@H](O)CN)O[C@H]3C[C@H]3O[C@@H](CC[C@@H]1O2)C[C@@H](C)C3=C [eribulin mesylate] .
8.03

* * *

# procedure_summary: Eribulin mesylate blood plasma and tumor tissue PK in LOX cancer-bearing mice (Embodiment 11)
# Format: in vivo
# settings: female, NU/NU nude, mouse, iv; tumor tissue; 1.0 mg/kg into caudal vein; LOX cancer-bearing mice
Counter-ions that a name gives are not always drawn.
assay_endpoint: MRT

# input molecule: C=C1C[C@@H]2CC[C@@]34C[C@H]5O[C@H]6[C@@H](O3)[C@H]3O[C@H](CC[C@@H]3O[C@H]6[C@H]5O4)CC(=O)C[C@@H]3[C@@H](OC)[C@@H](C[C@H](O)CN)O[C@H]3C[C@H]3O[C@@H](CC[C@@H]1O2)C[C@@H](C)C3=C [eribulin mesylate] ; wanted: its MRT
27.7 h

* * *

# procedure_summary: Eribulin mesylate blood plasma and tumor tissue PK in LOX cancer-bearing mice (Embodiment 11)
# Type: in vivo
# settings: female, NU/NU nude, mouse, plasma, iv, 1 mg/kg
Structures can show the parent of a compound that is named as a salt.
assay_endpoint: AUC(0-t) (ng·h/mL)
Express it in ng·h/mL; write the number only.

Need AUC(0-t) of C=C1C[C@@H]2CC[C@@]34C[C@H]5O[C@H]6[C@@H](O3)[C@H]3O[C@H](CC[C@@H]3O[C@H]6[C@H]5O4)CC(=O)C[C@@H]3[C@@H](OC)[C@@H](C[C@H](O)CN)O[C@H]3C[C@H]3O[C@@H](CC[C@@H]1O2)C[C@@H](C)C3=C [eribulin mesylate] , thanks.
363

* * *

# procedure_summary: Eribulin mesylate blood plasma and tumor tissue PK in LOX cancer-bearing mice (Embodiment 11)
# Type: in vivo
# settings: female, NU/NU nude, mouse, plasma, iv, 1 mg/kg
Structures can show the parent of a compound that is named as a salt.
assay_endpoint: AUC(0-inf) (ng·h/mL)
Provide the reading as a plain figure in ng·h/mL.

What does the data say about its AUC(0-inf)? Entry: C=C1C[C@@H]2CC[C@@]34C[C@H]5O[C@H]6[C@@H](O3)[C@H]3O[C@H](CC[C@@H]3O[C@H]6[C@H]5O4)CC(=O)C[C@@H]3[C@@H](OC)[C@@H](C[C@H](O)CN)O[C@H]3C[C@H]3O[C@@H](CC[C@@H]1O2)C[C@@H](C)C3=C [eribulin mesylate]
365
